test: chemical genetic growth profiling, strain panel (AID 1159580);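 note: tested at 20 µM; growth read once vehicle control cultures reached saturation at 30 °C; 1 = growth at the plate median or of vehicle wells; lower values mean less growth of the strain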; settings: S. cerevisiae deletion strains, growth OD, locus YHR013C, strain ard1
In all, about 5,500 compounds went through this assay and about 2,000 (36%) were called active. Inconclusive results (about 18%) are left out. Cut-off read from the data, not from the text of the source: active = normalized growth mostly below about 0.91 (no sharp cut-off); inconclusive = no clear call, values can overlap the other calls; inactive = mostly above about 0.92. Some of the results follow.
Permitted responses: T (active), F (inactive)

For this compound, state the assay outcome: O=[N+]([O-])c1cc([As](=O)(O)O)ccc1O
F

Now consider Oc1c(Cl)cc(Cl)c2cccnc12 .
T

Now consider Nc1ccc([As](=O)(O)O)cc1 .
F

Now consider Oc1c(Br)cc(Br)c2cccnc12 .
T

Now consider O=[N+]([O-])c1ccc(O)c([N+](=O)[O-])c1 .
F

Now consider Oc1ccc(Cl)c2cccnc12 .
T

Now consider OC[C@@H]1CCCN2CCCC[C@H]12 .
F

Now consider Cc1occc(=O)c1O .
F

Now consider CS(=O)(=O)CCCCN=C=S .
T

Now consider C=C(C)C1CC=C(CO)CC1 (stereo not drawn) .
F

Now consider O=C(O)C1=CCNCC1 .
F

Now consider Oc1c(I)cc(Cl)c2cccnc12 .
T

Now consider O=C(O)c1ccccc1Nc1cccc(C(F)(F)F)c1 .
F

* * *

Exercise: for every item that follows, state its recorded normalized growth.
assay: chemical genetic growth profiling, strain panel (AID 1159580);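 note: tested at 20 µM; growth read once vehicle control cultures reached saturation at 30 °C; 1 = growth at the plate median or of vehicle wells; lower values mean less growth of the strain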; settings: S. cerevisiae deletion strains, growth OD, locus YLL041C, strain sdh2, stronger effect = lower value
The campaign covered roughly 5,500 compounds. About 2,000 (36%) were called active. About 18% were inconclusive and are not listed. The list shows a part of the results.
Response field accepts a number only; no unit should be typed.

Suppose we examine the compound C/C=C/c1ccc2c(c1)OCO2 ; what normalized growth value has been reported?
1.02

Now consider CNC[C@@H](O)c1ccc(O)c(O)c1 .
1

Now consider CCCC1O[C@@H]2CC3C4CCC5=CC(=O)C=CC5(C)C4[C@@H](O)CC3(C)[C@]2(C(=O)CO)O1 (stereo partly specified) .
1.01

Now consider O=C(O)C1=CCNCC1 .
1.01

Now consider NC[C@H](O)c1ccc(O)c(O)c1 .
1

Now consider C=C(C)[C@H]1CC=C(C(=O)O)CC1 .
0.998

* * *

experiment: chemical genetic growth profiling, strain panel (AID 1159580);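 note: tested at 20 µM; growth read once vehicle control cultures reached saturation at 30 °C; 1 = growth at the plate median or of vehicle wells; lower values mean less growth of the strain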; conditions: S. cerevisiae deletion strains, growth OD, locus YOR144C, strain elg1, stronger effect = lower value
Hit rate of the full screen: of about 5,500 compounds, about 2,000 (36%) were called active. Not shown: some 18% with an inconclusive outcome. The list shows a part of the results.
assay.metric: normalized growth
Response field accepts a number only; no unit should be typed.

Suppose we examine the compound Nc1ncn([C@@H]2O[C@H](CO)[C@@H](O)[C@H]2O)c(=O)n1 ; what normalized growth value has been reported?
0.99

Now consider CC1(C)C(=O)C=C[C@@]2(C)C1=C(O)C(=O)[C@]1(C)C2CC[C@@]2(C)[C@H](c3ccoc3)C[C@H]3O[C@]321 (some centres not stated) .
0.855

Now consider O=C(CCCCCCCCCCCCC1CCCC1)Nc1ccc(S(=O)(=O)c2ccc(NC(=O)CCCCCCCCCCCCC3CCCC3)cc2)cc1 .
0.993

Now consider CC(=O)O[C@@H]1C[C@@]2(C)[C@H](c3ccoc3)C[C@H]3O[C@]32[C@]2(C)C(=O)C(O)=C3C(C)(C)C(=O)C=C[C@]3(C)C12 (some centres not stated) .
0.864

Now consider CCOP(=S)(OCC)SCn1c(=O)oc2cc(Cl)ccc21 .
0.982

Now consider COC(=O)[C@]1(C)CC[C@]2(C)CC[C@]3(C)C4=CCc5c(cc(O)c(O)c5C)[C@]4(C)CC[C@@]3(C)C2C1 (some centres not stated) .
0.973

Now consider COc1cc(OC)c2c(=O)c(-c3ccccc3)c(C)oc2c1OC .
0.999

Now consider CC1(C)C(C(Cl)Cl)C2(Cl)C(Cl)C(Cl)C1(Cl)C2(Cl)Cl (configuration not stated) .
0.967

Now consider CCC[C@H]1CC2=C(C[C@@H](CC)CC3=C1C(=O)OC3=O)C(=O)OC2=O .
1.01

Now consider O=C(O)/C=C/C=C/c1ccccc1 .
0.926

Now consider CN[C@H](CC(=O)O)C(=O)O .
0.99

Now consider O=C1C=CC2=C3c4cc(O)c(O)cc4C[C@@]3(O)COC2=C1 .
1.01

Now consider CC(=O)OC1CC(OC(C)=O)C2(C)C(CC(OC(C)=O)C3(C)C2CCC2(C)C(c4ccoc4)CC4OC423)C1(C)C (configuration not stated) .
0.999

Now consider CC/C(=C(\c1ccccc1)c1ccc(OCCN(C)C)cc1)c1ccccc1 .
0.0595

Now consider COc1ccccc1OCCNCC(O)COc1cccc2[nH]c3ccccc3c12 (configuration not stated) .
1.02

Now consider C=C(C)[C@H]1CC=C(C(=O)O)CC1 .
0.946

Now consider CC(C)(C)NC[C@@H](O)COc1nsnc1N1CCOCC1 .
0.982

Now consider COc1ccc(C(Cl)=C(c2ccc(OC)cc2)c2ccc(OC)cc2)cc1 .
1.01

Now consider CCN(CC)CCOc1ccc(/C(=C(\Cl)c2ccccc2)c2ccccc2)cc1 .
0.0617

Now consider Oc1c(Br)cc(Br)c2cccnc12 .
0.0654

Now consider c1ccc2c3c([nH]c2c1)CNCC3 .
1.01

Now consider CC(=O)OCC1(C)CCC2(C)CCC3(C)C4=CCc5c(cc(OC(C)=O)c(OC(C)=O)c5C)C4(C)CCC3(C)C2C1 (configuration not stated) .
0.994

Now consider Nc1ccc(C(=O)NCC(=O)O)cc1 .
1.01

Now consider CC1(C)C(O)CC(O)C2(C)C1CC(O)C1(C)C2CCC2(C)C(c3ccoc3)CC3OC321 (configuration not stated) .
1.02

Now consider O=C(O)CF .
0.987

Now consider CC(=O)NCCCCCC(=O)O .
0.978

Now consider CCCCC(CC)CN1CN(CC(CC)CCCC)CC(C)(N)C1 (configuration not stated) .
0.662

Now consider Nc1ccc(S(=O)(=O)Nc2ccccn2)cc1 .
0.989

Now consider CN(C)CCOC(C)(c1ccccc1)c1ccccn1 (configuration not stated) .
0.993

Now consider COc1cc(C(=O)NCc2ccc(OCCN(C)C)cc2)cc(OC)c1OC .
0.993

Now consider CO[C@H]1/C=C/O[C@@]2(C)Oc3c(C)c(O)c4c(O)c(c(/C=N/N5CCN(C)CC5)c(O)c4c3C2=O)NC(=O)/C(C)=C\C=C\C(C)[C@H](O)[C@@H](C)[C@@H](O)[C@@H](C)[C@@H](OC(C)=O)[C@@H]1C (some centres not stated) .
1.02

Now consider C=C[C@](C)(O)CCC=C(C)C .
1.01

Now consider NCCNC(=O)c1ccc(Cl)cc1 .
0.983

Now consider CC(=O)Nc1ccc(S(=O)(=O)Nc2ccc([N+](=O)[O-])cc2)cc1 .
0.997

Now consider Oc1c(Cl)cc(Cl)c2cccnc12 .
0.0585

Now consider CCC(Cc1c(I)cc(I)c(N)c1I)C(=O)O (configuration not stated) .
0.985

Now consider Nc1nc2ncc(C(=O)O)nc2c(=O)[nH]1 .
1.03

Now consider O[N+]1=CC=CCC1=S.On1ccccc1=S.[Zn] .
0.0584

Now consider O=C1C=CC2=C3c4cc(O)c(O)cc4CC3(O)COC2=C1O (configuration not stated) .
1.03

Now consider O=C(OC1Cc2c(O)cc(O)cc2OC1c1cc(O)c(O)c(O)c1-c1c(C2Oc3cc(O)cc(O)c3CC2OC(=O)c2cc(O)c(O)c(O)c2)cc(O)c(O)c1O)c1cc(O)c(O)c(O)c1 (configuration not stated) .
0.999

Now consider C=CC(C)(O)CC/C=C(\C)CCC=C(C)C (configuration not stated) .
0.999

Now consider CCCC1O[C@@H]2CC3C4CCC5=CC(=O)C=CC5(C)C4[C@@H](O)CC3(C)[C@]2(C(=O)CO)O1 (some centres not stated) .
1.01
